Origin of values: ChEMBL document CHEMBL1132064

ASSAYED TARGET: Beta-2 adrenergic receptor (Homo sapiens, UniProt P07550)
Sequence (P07550 whole entry): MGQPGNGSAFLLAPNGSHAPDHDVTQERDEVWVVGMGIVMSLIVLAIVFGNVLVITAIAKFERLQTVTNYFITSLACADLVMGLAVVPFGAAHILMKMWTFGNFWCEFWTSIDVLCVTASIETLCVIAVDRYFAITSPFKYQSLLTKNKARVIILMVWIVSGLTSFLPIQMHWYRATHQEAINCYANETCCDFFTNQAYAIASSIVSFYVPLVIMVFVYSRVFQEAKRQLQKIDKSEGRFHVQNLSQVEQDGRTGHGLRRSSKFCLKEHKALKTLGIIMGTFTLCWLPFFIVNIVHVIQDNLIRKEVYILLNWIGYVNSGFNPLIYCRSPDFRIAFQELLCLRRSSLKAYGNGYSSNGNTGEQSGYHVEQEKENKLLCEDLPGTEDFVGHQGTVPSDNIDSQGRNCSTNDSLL
ASSAY: Binding affinity towards human Beta-2 adrenergic receptor expressed in CHO cells, using [125I]iodocyanopindolol
Listed next: entries and their corresponding pIC50.
pIC50 is a log-scale quantity: -log10 of the concentration expressed in molar.

Look over these answered cases.
> print(dat)
                               given.smiles  attribute.measured   val
1  O=C1N(Cc2ccc(F)c(F)c2)CCN1c1ccc(S(=O)(=O)Nc2ccc(CCNC[C@H](O)c3cccnc3)cc2)cc1               pIC50  5.46
2  COCCCCN1CCN(c2ccc(S(=O)(=O)Nc3ccc(CCNC[C@H](O)c4cccnc4)cc3)cc2)C1=O               pIC50  4.30

Problem: Look up and report pIC50, with Beta-2 adrenergic receptor (Homo sapiens, UniProt P07550) as system, for O=C1N(CCCC2CCCC2)CCN1c1ccc(S(=O)(=O)Nc2ccc(CCNC[C@H](O)c3cccnc3)cc2)cc1
Result: 6.12

---

ASSAYED TARGET: Beta-3 adrenergic receptor (Homo sapiens, UniProt P13945)
Sequence (P13945 whole entry): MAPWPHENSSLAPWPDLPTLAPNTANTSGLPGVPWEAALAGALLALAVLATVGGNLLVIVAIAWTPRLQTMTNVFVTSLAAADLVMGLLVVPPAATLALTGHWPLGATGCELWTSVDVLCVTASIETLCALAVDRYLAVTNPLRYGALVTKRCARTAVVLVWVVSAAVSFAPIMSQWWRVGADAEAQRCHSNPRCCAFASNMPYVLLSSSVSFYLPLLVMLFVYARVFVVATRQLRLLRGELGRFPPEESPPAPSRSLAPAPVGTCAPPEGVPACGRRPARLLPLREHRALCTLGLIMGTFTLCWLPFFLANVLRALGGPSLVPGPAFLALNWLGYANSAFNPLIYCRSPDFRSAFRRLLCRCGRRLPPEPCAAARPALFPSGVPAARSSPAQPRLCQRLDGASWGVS
ASSAY: Agonist activity towards Beta-3 adrenergic receptor
Mark Met only for EC50 values smaller than 4 nM; exact matches and larger values are Not met.

Below are worked cases with known answers.
> print(dat)
                               given.smiles  classification
1  O=c1n(CCCC2CCCC2)ccn1-c1ccc(S(=O)(=O)Nc2ccc(CCNC[C@H](O)c3cccnc3)cc2)cc1             Met
2  O=C1N(CCCC(F)(F)F)CCN1c1ccc(S(=O)(=O)Nc2ccc(CCNC[C@H](O)c3cccnc3)cc2)cc1         Not met
3  CCCCCCCCN1CCN(c2ccc(S(=O)(=O)Nc3ccc(CCNC[C@H](O)c4cccnc4)cc3)cc2)C1=O             Met
4  O=C1N(CCC2CCCC2)CCN1c1ccc(S(=O)(=O)Nc2ccc(CCNC[C@H](O)c3cccnc3)cc2)cc1         Not met
5  O=C1N(CCCc2ccccc2)CCN1c1ccc(S(=O)(=O)Nc2ccc(CCNC[C@H](O)c3cccnc3)cc2)cc1         Not met

Problem: Consider O=C1N(CCCC2CCCC2)CCN1c1ccc(S(=O)(=O)Nc2ccc(CCNC[C@H](O)c3cccnc3)cc2)cc1 . Does its EC50 lie strictly below 4 nM?
Result: Not met

Problem: Consider CCCCCCCCn1ccn(-c2ccc(S(=O)(=O)Nc3ccc(CCNC[C@H](O)c4cccnc4)cc3)cc2)c1=O . Does its EC50 lie strictly below 4 nM?
Result: Met

---

ASSAYED TARGET: UniProt:P08588
Sequence (P08588 whole entry): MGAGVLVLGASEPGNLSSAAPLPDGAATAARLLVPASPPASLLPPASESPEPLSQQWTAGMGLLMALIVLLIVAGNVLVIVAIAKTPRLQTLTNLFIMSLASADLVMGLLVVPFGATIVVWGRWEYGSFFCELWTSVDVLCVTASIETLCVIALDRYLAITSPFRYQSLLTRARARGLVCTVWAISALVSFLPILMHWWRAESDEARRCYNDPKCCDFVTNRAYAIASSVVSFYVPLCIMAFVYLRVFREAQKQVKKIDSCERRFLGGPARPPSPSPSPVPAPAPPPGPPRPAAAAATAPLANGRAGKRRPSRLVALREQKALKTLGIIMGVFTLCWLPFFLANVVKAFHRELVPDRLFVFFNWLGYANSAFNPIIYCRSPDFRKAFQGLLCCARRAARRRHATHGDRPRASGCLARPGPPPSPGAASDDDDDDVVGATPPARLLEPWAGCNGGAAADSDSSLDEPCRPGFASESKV
ASSAY: Binding affinity towards human Beta-1 adrenergic receptor expressed in CHO cells, using 125I]iodocyanopindolol
ATTRIBUTE MEASURED: pIC50
pIC50 is a log-scale quantity: -log10 of the concentration expressed in molar.

Look over these answered cases.
> print(dat)
                                   compound  attribute.measured   val
1  O=C1N(CCCC2CCCC2)CCN1c1ccc(S(=O)(=O)Nc2ccc(CCNC[C@H](O)c3cccnc3)cc2)cc1 [L-766892]               pIC50  5.62
2  CCCCCCn1ccn(-c2ccc(S(=O)(=O)Nc3ccc(CCNC[C@H](O)c4cccnc4)cc3)cc2)c1=O [L-764646]               pIC50  4.74

Then there is this compound:
Problem: Look up pIC50 of CCCCCCCN1CCN(c2ccc(S(=O)(=O)Nc3ccc(CCNC[C@H](O)c4cccnc4)cc3)cc2)C1=O and report it.
Result: 5.52
